- TESTED TARGET: DNA gyrase (Staphylococcus aureus, UniProt P0A0K8+P20831)
- Sequence (P0A0K8 whole entry): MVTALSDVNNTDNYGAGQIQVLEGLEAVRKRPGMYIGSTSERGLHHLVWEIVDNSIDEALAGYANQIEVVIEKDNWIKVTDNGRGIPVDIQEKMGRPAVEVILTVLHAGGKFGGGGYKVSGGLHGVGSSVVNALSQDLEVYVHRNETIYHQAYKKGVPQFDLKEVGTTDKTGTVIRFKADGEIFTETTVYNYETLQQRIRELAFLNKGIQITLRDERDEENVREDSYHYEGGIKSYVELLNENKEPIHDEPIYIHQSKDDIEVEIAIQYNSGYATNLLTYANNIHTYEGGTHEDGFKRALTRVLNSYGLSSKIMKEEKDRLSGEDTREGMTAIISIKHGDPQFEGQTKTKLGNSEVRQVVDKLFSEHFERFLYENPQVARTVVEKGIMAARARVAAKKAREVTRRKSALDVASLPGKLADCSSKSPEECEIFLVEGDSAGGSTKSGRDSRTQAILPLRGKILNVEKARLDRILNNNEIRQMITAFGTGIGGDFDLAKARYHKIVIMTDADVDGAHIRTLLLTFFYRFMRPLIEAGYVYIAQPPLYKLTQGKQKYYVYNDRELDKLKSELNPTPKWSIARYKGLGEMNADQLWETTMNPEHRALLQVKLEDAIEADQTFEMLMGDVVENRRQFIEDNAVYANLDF
- Sequence (P20831 whole entry): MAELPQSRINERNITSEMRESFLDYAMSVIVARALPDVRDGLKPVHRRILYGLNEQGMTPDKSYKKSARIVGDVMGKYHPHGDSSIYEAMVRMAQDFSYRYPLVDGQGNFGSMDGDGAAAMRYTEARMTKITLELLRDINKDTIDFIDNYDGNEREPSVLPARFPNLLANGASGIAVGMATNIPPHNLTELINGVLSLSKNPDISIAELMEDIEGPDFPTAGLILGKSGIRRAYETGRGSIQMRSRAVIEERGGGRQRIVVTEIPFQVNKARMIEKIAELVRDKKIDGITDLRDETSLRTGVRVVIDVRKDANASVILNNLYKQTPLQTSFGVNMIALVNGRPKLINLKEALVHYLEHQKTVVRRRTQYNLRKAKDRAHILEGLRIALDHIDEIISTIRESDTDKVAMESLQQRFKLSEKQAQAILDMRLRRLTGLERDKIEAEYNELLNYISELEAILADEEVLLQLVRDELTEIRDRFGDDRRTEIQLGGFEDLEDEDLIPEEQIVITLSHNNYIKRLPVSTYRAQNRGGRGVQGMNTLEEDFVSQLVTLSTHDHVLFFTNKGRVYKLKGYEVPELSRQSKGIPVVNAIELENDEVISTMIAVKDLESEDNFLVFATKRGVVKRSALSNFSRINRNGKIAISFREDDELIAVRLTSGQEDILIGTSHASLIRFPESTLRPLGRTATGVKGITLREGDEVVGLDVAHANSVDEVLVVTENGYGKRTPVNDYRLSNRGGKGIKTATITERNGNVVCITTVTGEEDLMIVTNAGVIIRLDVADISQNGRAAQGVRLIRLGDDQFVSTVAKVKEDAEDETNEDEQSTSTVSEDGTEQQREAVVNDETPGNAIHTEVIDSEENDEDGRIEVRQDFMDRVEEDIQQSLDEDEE
- TEST: Inhibition of Staphylococcus aureus DNA gyrase using relaxed pNO1 plasmid DNA as substrate incubated for 30 mins by fluorescence assay
pIC50: −log10 of the molar value.
EXPERIMENTAL READOUT: pIC50

{"columns": ["STRUCTURE SMILES", "VAL"],
 "data": [
  ["Cc1[nH]c(C(=O)Nc2nc3ccc(NC(=O)CCN)cc3s2)c(Cl)c1Cl", 5.82],
  ["CC(=O)Nc1ccc2nc(NC(=O)c3[nH]c(C)c(Cl)c3Cl)sc2c1", 6.40],
  ["Cc1[nH]c(C(=O)Nc2nc3ccc(NC(N)=O)cc3s2)c(Cl)c1Cl", 5.89],
  ["O=C(O)C(=O)Nc1ccc2nc(NC(=O)c3cc(Br)c(Br)[nH]3)[nH]c2c1", 4.10],
  ["CC(=O)Nc1nc2ccc(NC(=O)c3[nH]c(C)c(Cl)c3Cl)cc2s1", 4.45]
]}

###

- TESTED TARGET: DNA gyrase (Escherichia coli, UniProt P0AES4+P0AES6)
- TEST: Inhibition of Escherichia coli DNA gyrase using relaxed pNO1 plasmid DNA as substrate incubated for 30 mins by fluorescence assay
pIC50: −log10 of the molar value.
Quick rule for you: pIC50 at 7 or higher means Fulfilled, lower means Not fulfilled.

{"columns": ["STRUCTURE SMILES", "LABEL VALUE"],
 "data": [
  ["CC(=O)Nc1ccc2nc(NC(=O)c3[nH]c(C)c(Cl)c3Cl)sc2c1", "Fulfilled"],
  ["COC(=O)CC(=O)Nc1ccc2nc(NC(=O)c3cc(Br)c(Br)[nH]3)[nH]c2c1", "Not fulfilled"],
  ["CCOC(=O)C(=O)Nc1ccc2nc(NC(=O)c3cc(Br)c(Br)[nH]3)[nH]c2c1", "Not fulfilled"],
  ["Cc1[nH]c(C(=O)Nc2nc3ccc(NC(=O)c4ccncc4)cc3s2)c(Cl)c1Cl", "Not fulfilled"],
  ["Cc1[nH]c(C(=O)Nc2nc3ccc(NC(N)=O)cc3s2)c(Cl)c1Cl", "Fulfilled"],
  ["CCOC(=O)C(=O)Nc1ccc2nc(NC(=O)c3[nH]c(C)c(Cl)c3Cl)sc2c1", "Fulfilled"],
  ["Cc1[nH]c(C(=O)Nc2nc3ccc(NC(=O)CNC(=O)OC(C)(C)C)cc3s2)c(Cl)c1Cl", "Fulfilled"],
  ["O=C(O)CC(=O)Nc1ccc2nc(NC(=O)c3cc(Br)c(Br)[nH]3)[nH]c2c1", "Not fulfilled"]
]}

###

- TEST: Inhibition of Escherichia coli DNA topoisomerase 4 using supercoiled pNO1 plasmid DNA as substrate incubated for 30 mins by fluorescence assay
pIC50: −log10 of the molar value.
Overview of reported pIC50 across a group of molecules:

{"columns": ["STRUCTURE SMILES", "pIC50"],
 "data": [
  ["O=C(O)C(=O)Nc1ccc2nc(NC(=O)c3cc(Br)c(Br)[nH]3)[nH]c2c1", 4.92],
  ["Cc1[nH]c(C(=O)Nc2nc3ccc(NC(=O)C(=O)O)cc3s2)c(Cl)c1Cl", 7.12],
  ["Cc1[nH]c(C(=O)Nc2nc3ccc(NC(N)=O)cc3s2)c(Cl)c1Cl", 5.28],
  ["Cc1[nH]c(C(=O)Nc2ccc3nc(NC(=O)C(=O)O)sc3c2)c(Cl)c1Cl", 5.19],
  ["Cc1[nH]c(C(=O)Nc2nc3ccc(NC(=O)CCN)cc3s2)c(Cl)c1Cl", 5.00],
  ["CC(=O)Nc1ccc2nc(NC(=O)c3[nH]c(C)c(Cl)c3Cl)sc2c1", 5.34]
]}
